TEST_SYSTEM: Voltage-gated potassium channel subunit beta-2 (Rattus norvegicus) (UniProt P62483)
Sequence (P62483 whole entry, looked up): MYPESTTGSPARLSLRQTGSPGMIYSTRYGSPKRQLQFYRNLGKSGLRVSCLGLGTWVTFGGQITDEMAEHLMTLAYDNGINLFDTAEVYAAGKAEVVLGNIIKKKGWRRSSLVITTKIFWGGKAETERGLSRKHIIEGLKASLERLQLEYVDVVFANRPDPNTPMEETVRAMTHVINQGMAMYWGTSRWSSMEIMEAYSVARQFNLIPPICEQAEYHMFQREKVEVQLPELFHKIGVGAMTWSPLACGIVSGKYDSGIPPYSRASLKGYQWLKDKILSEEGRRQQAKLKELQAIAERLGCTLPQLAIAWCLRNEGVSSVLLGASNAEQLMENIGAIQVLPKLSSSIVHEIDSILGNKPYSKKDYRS
MEASUREMENT_PROTOCOL: KvBeta enzyme negative modulators, primary screen, biochemical, NADPH fluorescence (AID 622);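 further: slope of raw intensity against log time taken from 70 to 1610 s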
MEASUREMENT_SETUP: recombinant KvBeta, 4-cyanobenzaldehyde reduction, at 10 µM, active compounds read high
EXPERIMENTAL_ENDPOINT: fluorescence slope
Respond using a number only.

Worked cases, answers included:
Enquiry: # query: fluorescence slope of entry COc1ccc(C2=Nn3c(nnc3-c3ccccn3)SC2)cc1
Return: -0.427

Enquiry: Given the entry CNC[C@H](O)c1cccc(O)c1 , report its measured fluorescence slope.
Return: -0.468

Enquiry: Fill in the blank: the reported fluorescence slope of O=C(CCN1C(=O)c2ccccc2C1=O)OCN1C(=O)c2ccccc2C1=O is ____.
Return: -0.336

***
Enquiry: Fill blank: measured fluorescence slope of the compound COC(=O)c1ccc(C2/C(=C(/O)c3ccc(OC)cc3)C(=O)C(=O)N2c2cc(C)on2)cc1 (centres undefined) is ____.
Return: -0.466

Enquiry: Give the measured fluorescence slope of CCN(CC)C(=O)c1ccc(O)c(OC)c1 .
Return: -0.5

Enquiry: Query (compound): CNc1ccccc1-c1nc2ccccc2n(C)c1=O ; field requested: fluorescence slope
Return: -0.488

Each recorded value in this set is attributed to PubChem BioAssay.
